test_summary: Solubilization enhancement with PVP K-30 and citric acid (Preparation C)
Assay type: physicochemical
study_conditions: 60 °C, aqueous with cosolvent or surfactant or cyclodextrin, thermodynamic from solid
Experimental: Approximately 1.0, 1.5, 1.6, 2.5 and 3.0 grams of amorphous paroxetine HCl were weighed into five 25-ml volumetric flasks. Ten milliliters of an ethanol-water (20% v/v ethanol) mixture containing 0.25 grams of polyvinyl pyrrolidone (PVP) K-30 and 0.02 grams of citric acid anhydrous were added into each of the five flasks and the flasks were sonicated for 30 minutes. Only the solution in flask 1 became clear while only part of the paroxetine HCl in flasks 2 through 5 dissolved.
Counter-ions that a name gives are not always drawn.
recorded_metric: solubility at 30 min

Item under review: Fc1ccc([C@@H]2CCNC[C@H]2COc2ccc3c(c2)OCO3)cc1 [Paroxetine HCl] . Reported solubility at 30 min? > 300 mg/mL
